- System: SF-268 CNS
- experimentalDetails: NCI tumour cell line growth inhibition, 48 h; in the data active means GI50 below about 0.43 µM; inactive means the rest
# valid calls are t for active, f for inactive; nothing else

Worked cases, answers included:
O=C(Cc1csc2nc(-c3ccc(Br)cc3)cn12)N/N=C/c1ccccc1O: f
COc1ccc(C2=NOC3=c4ccccc4=CSC3=C2c2ccccc2)cc1: f
Clc1cc(Cl)cc(Nc2ccc3c(OCCCN4CCOCC4)cccc3n2)c1: f

Ask | Outcome? Cc1ncc([N+](=O)[O-])n1CCOc1ccc(C(=O)/C=C/c2ccc(C(F)(F)F)cc2)cc1
Reply | f

Ask | Outcome? CC[C@]1(O)C[C@@H]2CN(CCc3c([nH]c4ccccc34)[C@@](C(=O)OC)(c3cc4c(cc3OC)N(C)[C@H]3[C@@](O)(C(=O)OC)[C@H](OC(=O)CCCBr)[C@]5(CC)C=CCN6CC[C@]43[C@@H]65)C2)C1
Reply | t

Ask | Outcome? Cn1cc(C2=C(c3cccc([N+](=O)[O-])c3)C(=O)NC2=O)c2ccccc21
Reply | f

Ask | Outcome? CN1CCC(C(=O)Nc2n[nH]c3nnc(-c4ccccc4)cc23)CC1
Reply | f

Ask | Outcome? O=[N+]([O-])/C(=C/C=C/c1ccccc1)c1ccccc1
Reply | f

Ask | Outcome? O=C([CH-]C(=O)c1ccccc1)c1ccccc1.[CH2-]C.[CH2-]C.[Tl+3]
Reply | f

----------
TGI overview
- Tested on: PC-3 prostate
- experimentalDetails: NCI tumour cell line growth inhibition, 48 h

Ask | Which value of TGI has been reported for Cn1cc(C2=C(c3cccc([N+](=O)[O-])c3)C(=O)NC2=O)c2ccccc21 in the records?
Reply | > 25 µM

Ask | Which value of TGI has been reported for Oc1ccccc1/C=N/c1nc(-c2ccccc2)cs1 in the records?
Reply | > 100 µM

Ask | Which value of TGI has been reported for N#CC(C#N)=C/C=C/c1ccccc1[N+](=O)[O-] in the records?
Reply | > 10 µM

Ask | Which value of TGI has been reported for CCCCCCCCCCCCCCCCOC[C@H](COC(c1ccccc1)(c1ccccc1)c1ccccc1)O[P+](=S)OC (some centres undefined) in the records?
Reply | > 100 µM

----------
- System: TK-10 renal
- experimentalDetails: NCI tumour cell line growth inhibition, 48 h
measuredEndpoint: TGI

O=[N+]([O-])C(/C=C(\Cl)[N+](=O)[O-])=C(Nc1ccccc1)Nc1ccccc1: 25.4 µM

Ask | Which value of TGI has been reported for Cc1cn([C@H]2CN(O)C[C@@H](CO)O2)c(=O)[nH]c1=O in the records?
Reply | > 100 µM

Ask | Which value of TGI has been reported for COc1ccc(-c2nn(-c3cccc(Cl)c3)cc2-c2c(C#N)c(=O)n3[nH]c(-c4ccc(C)o4)nc3c2C#N)cc1 in the records?
Reply | > 50 µM

Ask | Which value of TGI has been reported for FC(F)(Sc1ncccn1)c1nc2ccccc2o1 in the records?
Reply | > 100 µM

Ask | Which value of TGI has been reported for CCOC(=O)c1cnc2c(ccc3ncccc32)c1OCC in the records?
Reply | > 100 µM

----------
TGI overview
- Test system: SNB-75 CNS
- experimentalDetails: NCI tumour cell line growth inhibition, 48 h

Example results:
CCOC1OC(C)(C=C(C#N)C#N)CCC1C (stereo not drawn): > 100 µM
C[N+](C)([O-])C12CC3CC(CC(C3)C1)C2: > 100 µM
Fc1nc(Sc2ncnc3nc[nH]c23)nc(-c2c3ccccc3c3sc4ccccc4n23)n1: > 100 µM
OCCN1CCCN(CCCN2c3ccccc3Sc3ccc(C(F)(F)F)cc32)CC1: 8.51 µM

Ask | Which value of TGI has been reported for O=C(Nc1ccc(-n2cc(-c3ccncc3)c(-c3ccc(Cl)c(O)c3)n2)cc1)c1ccc(Cl)c(Cl)c1 in the records?
Reply | > 100 µM

Ask | Which value of TGI has been reported for CCOC(=O)c1cnc2c(ccc3ncccc32)c1OCC in the records?
Reply | > 100 µM

Ask | Which value of TGI has been reported for COc1cc(/C=C2\C(=O)N(c3ccc(Cl)cc3)C(c3ccccc3)S2(=O)=O)cc(OC)c1OC (stereo not drawn) in the records?
Reply | > 100 µM
